pIC50: −log10 of the molar value.
Recorded pIC50 for molecules tested on Prothrombin (Homo sapiens), drawn from a number of studies.

// query For the record CC(C)C[C@H](NC(=O)c1ccc(Cl)s1)C(=O)Nc1ccc(N2CCOCC2=O)cc1 , what value of pIC50 is listed for Prothrombin (Homo sapiens)?
// result < 5.00

// query For the record Cc1ccnc(CNC(=O)Cc2c(C)ccn(NS(=O)(=O)c3ccccc3S(C)(=O)=O)c2=O)c1F , what value of pIC50 is listed for Prothrombin (Homo sapiens)?
// result < 4.35

// query For the record Cc1cc(NC(=O)[C@@H](C)NC(=O)c2ccc(Cl)s2)ccc1N1CCOCC1=O , what value of pIC50 is listed for Prothrombin (Homo sapiens)?
// result < 5.00

// query For the record Nc1cccc(-c2c(Cl)nc(NC3CCC3)c(=O)n2CC(=O)NCc2ccc3c(N)noc3c2)c1 , what value of pIC50 is listed for Prothrombin (Homo sapiens)?
// result < 4.52
